- system-name: T1, C3b (human, UniProt P01024 23-667; P01024 749-1663)
- T1 construct: also called soluble C3b; human C3b
- T1 sequence (P01024 23-667 limits assumed, chain 1 of 2): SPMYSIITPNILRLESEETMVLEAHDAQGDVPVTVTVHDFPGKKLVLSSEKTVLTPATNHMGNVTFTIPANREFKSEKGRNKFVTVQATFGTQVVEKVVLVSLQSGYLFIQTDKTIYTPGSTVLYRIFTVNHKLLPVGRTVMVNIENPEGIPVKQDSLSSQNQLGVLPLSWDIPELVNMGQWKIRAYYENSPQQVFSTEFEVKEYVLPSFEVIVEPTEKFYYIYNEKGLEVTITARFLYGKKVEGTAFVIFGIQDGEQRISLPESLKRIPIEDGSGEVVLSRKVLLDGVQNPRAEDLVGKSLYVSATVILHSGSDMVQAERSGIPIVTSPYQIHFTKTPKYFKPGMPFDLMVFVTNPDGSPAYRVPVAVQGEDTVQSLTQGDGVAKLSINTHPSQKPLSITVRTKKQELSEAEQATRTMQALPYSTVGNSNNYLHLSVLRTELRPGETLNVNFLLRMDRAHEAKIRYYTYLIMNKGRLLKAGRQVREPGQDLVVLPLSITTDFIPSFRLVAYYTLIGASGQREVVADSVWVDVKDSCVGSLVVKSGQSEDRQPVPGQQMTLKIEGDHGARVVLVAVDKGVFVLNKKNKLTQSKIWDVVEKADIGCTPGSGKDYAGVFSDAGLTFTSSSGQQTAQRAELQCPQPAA
- T1 sequence (P01024 749-1663 limits assumed, chain 2 of 2): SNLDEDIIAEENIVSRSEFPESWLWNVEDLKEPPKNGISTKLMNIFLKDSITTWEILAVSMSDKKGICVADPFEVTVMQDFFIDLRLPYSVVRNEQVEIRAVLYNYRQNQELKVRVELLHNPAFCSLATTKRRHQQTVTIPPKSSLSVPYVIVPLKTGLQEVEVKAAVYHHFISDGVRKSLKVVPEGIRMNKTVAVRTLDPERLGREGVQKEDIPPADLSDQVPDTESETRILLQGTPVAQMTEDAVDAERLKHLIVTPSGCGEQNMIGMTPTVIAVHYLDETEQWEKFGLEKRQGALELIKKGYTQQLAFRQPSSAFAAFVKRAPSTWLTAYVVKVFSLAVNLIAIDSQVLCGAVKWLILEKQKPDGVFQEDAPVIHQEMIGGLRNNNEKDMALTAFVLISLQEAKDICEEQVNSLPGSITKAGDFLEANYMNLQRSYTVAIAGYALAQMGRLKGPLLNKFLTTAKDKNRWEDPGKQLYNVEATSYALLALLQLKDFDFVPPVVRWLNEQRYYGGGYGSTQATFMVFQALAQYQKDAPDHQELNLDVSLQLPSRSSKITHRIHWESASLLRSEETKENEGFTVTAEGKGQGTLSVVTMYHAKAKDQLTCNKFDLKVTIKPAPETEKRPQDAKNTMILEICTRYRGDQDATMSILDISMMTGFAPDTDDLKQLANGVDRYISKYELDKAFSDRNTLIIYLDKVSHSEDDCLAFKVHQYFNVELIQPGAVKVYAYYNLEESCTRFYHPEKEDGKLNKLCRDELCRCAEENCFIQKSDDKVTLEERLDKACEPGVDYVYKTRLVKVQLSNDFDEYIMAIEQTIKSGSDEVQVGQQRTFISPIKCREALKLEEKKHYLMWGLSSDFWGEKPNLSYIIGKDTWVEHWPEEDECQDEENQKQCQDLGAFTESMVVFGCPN
- test-summary: competitive ELISA, column 'Mu Ic50 (nM)'; format of paragraph 183: variant in solution competes with coated huCRIg(L)-LFH for C3b
Kindly state IC50 for each of the entries shown.

Exercise: Given the entry IRL52 (receptor, also called Q60I-Q64R/Q105K) CRIg variant: RPILEVPESVTGPWKGDVNLPCTYDPLQGYTQVLVKWLVQRGSDPVTIFLRDSSGDHIQIAKYRGRLHVSHKVPGDVSLQLSTLEMDDRSHYTCEVTWQTPDGNKVVRDKITELRVQKHSSKLLKTKTEAPTTMTYPLKATSTVKQSWDWTTDMDGYLGETSAGPGKSLP , report its measured IC50.
Solution: 22 nM

Exercise: Given the entry IRL55 or IRL56 (last digit not sure) (receptor, row between IRL52 and IRL59; also called Q60I-Q64R/K110N) CRIg variant: RPILEVPESVTGPWKGDVNLPCTYDPLQGYTQVLVKWLVQRGSDPVTIFLRDSSGDHIQIAKYRGRLHVSHKVPGDVSLQLSTLEMDDRSHYTCEVTWQTPDGNQVVRDNITELRVQKHSSKLLKTKTEAPTTMTYPLKATSTVKQSWDWTTDMDGYLGETSAGPGKSLP , report its measured IC50.
Solution: 33 nM
